Assay: Clearance in CD1 mouse at 1 mg/kg, iv by LC-MS/MS analysis
Format: ADME, organism-based
Conditions: in vivo
assayMetric: clearance (mL/min/kg)
Provide only the numeric value, understood in mL/min/kg.

Using the record for COC(=O)N[C@H](C(=O)N1[C@H](c2ncc(-c3ccc4c(c3)-c3ccc(-c5cnc([C@@H]6C[C@@H]7CCC[C@@H]7N6C(=O)[C@@H](NC(=O)OC)[C@@H](C)OC)[nH]5)cc3-4)[nH]2)C[C@@H]2CCC[C@@H]21)[C@@H](C)OC , report its clearance. 15.4

* * *

Test: Half life in Han Wistar rat at 5 mg/kg, po by LC-MS/MS analysis
Type: ADME, organism-based
Details: in vivo
assayMetric: half-life
A bare number is not enough; add the unit after it.

COC(=O)N[C@H](C(=O)N1[C@H](c2ncc(-c3ccc4c(c3)-c3ccc(-c5cnc([C@@H]6C[C@@H]7CCC[C@@H]7N6C(=O)[C@@H](NC(=O)OC)[C@@H](C)OC)[nH]5)cc3-4)[nH]2)C[C@@H]2CCC[C@@H]21)[C@@H](C)OC.Cl :: 1.7 h

Let us move to another entry and its half-life.
Entry COC(=O)N[C@H](C(=O)N1[C@H](c2ncc(-c3ccc4c(c3)-c3ccc(-c5cnc([C@@H]6C[C@@H]7CCC[C@@H]7N6C(=O)[C@@H](NC(=O)OC)[C@@H](C)OC)[nH]5)cc3-4)[nH]2)C[C@@H]2CCC[C@@H]21)[C@@H](C)OC : reported half-life = ? 4.8 h
